Please respond with reported LC retention time for every item in the list.
test: RP, Waters ACQUITY UPLC BEH C18, 100 × 2.1 mm, 1.7 µm, 0.1 mL/min, estimated dead time 2.2 min; A: water + 0.1% formic acid, pH 3; B: methanol + 0.1% formic acid, pH 3; gradient (min/%B) 0/5 5/5 25/95 25.1/100 35/100 35.1/5 45/5; conditions: stereoisomer not certain
Field: numeric (min). Do not append units.

In: Fill in the blank: the reported LC retention time of C[N+](C)(C)CCOP(=O)(O)OP(=O)([O-])OCC1OC(n2ccc(N)nc2=O)C(O)C1O (configuration not stated) [CYTIDINE 5'-DIPHOSPHOCHOLINE] is ____.
Out: 2.72

In: Thanks! And Nc1ccn(C2OC(CO)C3OP(=O)([O-])OC32)c(=O)n1 (configuration not stated) [CYTIDINE 2',3'-CYCLIC MONOPHOSPHATE] ?
Out: 2.72

In: Would you mind doing CC12CCC(=O)C=C1CCC1C2C(=O)CC2(C)C1CCC2(O)C(=O)CO (configuration not stated) [CORTISONE] as well?
Out: 21

In: Now consider Nc1nc2nc[nH]c2c(=O)[nH]1 [GUANINE] and answer again.
Out: 2.66

In: Next: N[C@@H](Cc1cc(I)c(O)c(I)c1)C(=O)O [3,5-DIIODO-L-TYROSINE]
Out: 16.1

In: What do we get for O=c1cccc[nH]1 [2-HYDROXYPYRIDINE] ?
Out: 2.75

In: Then O=c1[nH]c(=O)c2[nH]cnc2[nH]1 [XANTHINE] ?
Out: 2.72

In: Proceed to Cn1c(=O)c2c(ncn2C)n(C)c1=O [CAFFEINE]
Out: 14.6

In: And the next one, N[C@@H](Cc1cc(I)c(Oc2ccc(O)cc2)c(I)c1)C(=O)O [3,5-DIIODO-L-THYRONINE] ?
Out: 20.2

In: Please give the result for Nc1nc2c(ncn2C2OC(COP(=O)(O)O)C(O)C2O)c(=O)[nH]1 (configuration not stated) [GUANOSINE 5'-MONOPHOSPHATE] too.
Out: 2.84

In: Now give it for Nc1ncnc2c1ncn2C1CC(O)C(COP(=O)(O)O)O1 (configuration not stated) [DAMP] too.
Out: 2.72

In: Again, but for Nc1nc2c(ncn2C2OC3COP(=O)(O)OC3C2O)c(=O)[nH]1 (configuration not stated) [GUANOSINE 3',5'-CYCLIC MONOPHOSPHATE]
Out: 2.72

In: Next: C[N+](C)(C)CCOP(=O)([O-])OCC(O)CO (configuration not stated) [SN-GLYCERO-3-PHOSPHOCHOLINE]
Out: 2.66

In: Next entry: C=CC1=C(C)C(C=c2[nH]c(=Cc3[nH]c(C=C4NC(=O)C(C)=C4C=C)c(C)c3CCC(=O)O)c(CCC(=O)O)c2C)=NC1=O [BILIVERDIN]
Out: 23.5

In: What would you report for CCCCCCCCCCCCCCCC(O)C(N)CO (configuration not stated) [SPHINGANINE] ?
Out: 27.9

In: Okay, and O=C(O)c1cc(=O)c2cccc(O)c2[nH]1 [XANTHURENIC ACID] ?
Out: 13.8

In: C[N+](C)(C)CCOP(=O)(O)O [PHOSPHOCHOLINE] , same question.
Out: 2.66

In: Repeat for the following compound: O=C(O)c1ccc(=O)[nH]c1 [6-HYDROXYNICOTINATE]
Out: 2.75

In: How about this compound: CCCCCCCCCC(=O)OCC(COP(=O)([O-])OCC[N+](C)(C)C)OC(=O)CCCCCCCCC (configuration not stated) [1,2-DIDECANOYL-SN-GLYCERO-3-PHOSPHOCHOLINE]
Out: 29.7

In: Now this one: CC1C(=O)Nc2ccccc21 (configuration not stated) [3-METHYL-2-OXINDOLE]
Out: 19.2

In: Would you kindly repeat that for CCCCCCCCCCCC(=O)OC(CC(=O)[O-])C[N+](C)(C)C (configuration not stated) [LAUROYLCARNITINE] ?
Out: 25.7

In: Also Cc1cc2nc3[nH]c(=O)[nH]c(=O)c3nc2cc1C [LUMICHROME] ?
Out: 19.6

In: And then CCCCCCSCC(NC(=O)CCC(N)C(=O)O)C(=O)NCC(=O)O (configuration not stated) [S-HEXYL-GLUTATHIONE] , what is it?
Out: 21.2

In: Input CN(CC(=O)O)C(N)=NP(=O)(O)O [CREATINE PHOSPHATE]
Out: 3.05

In: Try NC(Cc1ccc(Oc2cc(I)c(O)c(I)c2)c(I)c1)C(=O)O (configuration not stated) [3,3',5'-TRIIODOTHYRONINE] next.
Out: 22.2

In: What about OCCc1c[nH]c2ccccc12 [INDOLE-3-ETHANOL] ?
Out: 18.5

In: Record: NCCP(=O)(O)O [(2-AMINOETHYL)PHOSPHONATE]
Out: 2.75
